test: Kinetic solubility of the compound at pH 7.4; settings: buffer
Lab note: compare solubility kinetic against 20 µM. Equal or greater, write yes (1). Smaller, write no (0).

Answered cases to consult:
Enquiry: Please check the record Clc1ccc(-c2cc3c(o2)-c2nncn2-c2ccc(N4CCNCC4)cc2C3)cc1 and state if its solubility kinetic is at or above 20 µM.
Return: no (0)

Enquiry: Please check the record O=C(c1ccc(-c2ccc(Cl)cc2)o1)N(Cc1ccccn1)c1ccc(N2CCNCC2)cc1 and state if its solubility kinetic is at or above 20 µM.
Return: yes (1)

Enquiry: Please check the record Clc1ccc(-c2cc3c(o2)-c2nccn2-c2ccc(N4CCNCC4)cc2OC3)cc1 and state if its solubility kinetic is at or above 20 µM.
Return: yes (1)

---
Enquiry: Please check the record N#Cc1ccc(-c2cc3c(o2)-c2nccn2-c2ccc(N4CCNCC4)cc2C3)cc1 and state if its solubility kinetic is at or above 20 µM.
Return: no (0)

Enquiry: Please check the record N#Cc1ccc(-c2cc3c(o2)-c2nncn2-c2ccc(N4CCNCC4)cc2C3)cc1 and state if its solubility kinetic is at or above 20 µM.
Return: no (0)

Enquiry: Please check the record Cc1nnc2n1-c1ccc(N3CCNCC3)cc1Cc1cc(-c3ccc(Cl)cc3)oc1-2 and state if its solubility kinetic is at or above 20 µM.
Return: no (0)

Enquiry: Please check the record Fc1ccc(-c2cc3c(o2)-c2nncn2-c2ccc(N4CCNCC4)cc2C3)cc1 and state if its solubility kinetic is at or above 20 µM.
Return: yes (1)
